targetEntity: FKBP12 (Homo sapiens, UniProt P62942)
Sequence (P62942 whole entry): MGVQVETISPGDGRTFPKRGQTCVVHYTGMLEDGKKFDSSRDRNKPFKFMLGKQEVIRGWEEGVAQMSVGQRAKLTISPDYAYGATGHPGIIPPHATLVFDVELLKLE
assayRemarks: FKBP12 Binding Assay: inhibition of FKBP rotomase activity (cis-N-succinyl-Ala-Ala-Pro-Phe-p-nitroanilide / chymotrypsin), apparent Ki
Assay type: biochemical
testContext: Table 2, formula II', compound 0.1 nM-10 μM
valueType: Ki (nM)

Some compounds with recorded Ki:
{"compound": "C=CCC(OC(=O)[C@@H]1CCCCN1C(=O)C(=O)c1cc(OC)c(OC)c(OC)c1)c1cc(OCc2ccncc2)c(OCc2ccncc2)c(OCc2ccncc2)c1 (some centres unmarked) [compound 118]", "endpointUnit": "nM", "Ki": 12}
{"compound": "COc1cc(C(=O)C(=O)N2CCCC[C@H]2C(=O)OC(CCCc2ccccc2)c2ccc(OCc3ccncc3)c(C(=O)N3CCOCC3)c2)cc(OC)c1OC (some centres unmarked)", "endpointUnit": "nM", "Ki": 2}
{"compound": "COc1cc(C(=O)C(=O)N2CCCC[C@H]2C(=O)OC(CCCc2ccccc2)CCCc2ccc(C(=O)NCc3ccccc3)cc2)cc(OC)c1OC (some centres unmarked)", "endpointUnit": "nM", "Ki": 1.6}

[a] COc1cc(C(=O)C(=O)N2CCCC[C@H]2C(=O)OC(C)c2ccc(OCc3ccncc3)c(OCc3ccncc3)c2OC(C)C)cc(OC)c1OC (some centres unmarked) [compound 84]
[b] COc1cc(C(=O)C(=O)N2CCCC[C@H]2C(=O)OC(CCCc2ccccc2)c2cccc(C(=O)c3cccnc3)c2)cc(OC)c1OC (some centres unmarked) [compound 92]
Ask: Lower Ki: a or b ? Your choice should be expressed through its label.
Result: b

----------
targetEntity: FKBP12 (Homo sapiens, UniProt P62942)
assayRemarks: FKBP12 Binding Assay: inhibition of FKBP rotomase activity (cis-N-succinyl-Ala-Ala-Pro-Phe-p-nitroanilide / chymotrypsin), apparent Ki
Format: biochemical
testContext: Table 2, formula II', compound 0.1 nM-10 μM
pKi: −log10 of the molar value.
valueType: pKi

{"compound": "COc1cc(C(=O)C(=O)N2CCC[C@H]2C(=O)OC(C)c2cc(OCc3ccncc3)c(OCc3ccncc3)c(OCc3ccncc3)c2)cc(OC)c1OC (stereo partly shown) [compound 86]", "valueType": "pKi", "readoutValue": 6.55}
{"compound": "C=CCOCCC(CCCc1ccccc1)OC(=O)[C@@H]1CCCCN1C(=O)C(=O)c1cc(OC)c(OC)c(OC)c1 (stereo partly shown)", "valueType": "pKi", "readoutValue": 7.96}
{"compound": "C=CCOc1ccccc1C(CCCc1ccccc1)OC(=O)[C@@H]1CCCCN1C(=O)C(=O)c1cc(OC)c(OC)c(OC)c1 (stereo partly shown)", "valueType": "pKi", "readoutValue": 6.82}
{"compound": "COc1cc(C(=O)C(=O)N2CCC[C@H]2C(=O)OC(COCc2ccccc2)COCc2ccccc2)cc(OC)c1OC", "valueType": "pKi", "readoutValue": 4.12}
{"compound": "COc1ccc(CCC(CCCc2ccccc2)OC(=O)[C@@H]2CCCCN2C(=O)C(=O)c2cc(OC)c(OC)c(OC)c2)cc1 (stereo partly shown)", "valueType": "pKi", "readoutValue": 8.46}
{"compound": "COc1cc(C(=O)C(=O)N2CCCC[C@H]2C(=O)OC(c2cccnc2)c2cccc(OCc3ccncc3)c2)cc(OC)c1OC (stereo partly shown)", "valueType": "pKi", "readoutValue": 7.89}

[P] COc1ccc(C(=O)C(=O)N2CCCC[C@H]2C(=O)OC(CCCc2ccccc2)c2cccc(C(=O)c3ccncc3)c2)cc1C/C=C/c1ccccc1 (stereo partly shown)
[Q] COc1ccc(C(=O)C(=O)N2CCCC[C@H]2C(=O)OC(CCCc2ccccc2)c2cccc(C(=O)c3ccncc3)c2)cc1OCc1ccccc1 (stereo partly shown)
[R] COc1cc(C(=O)C(=O)N2CCC[C@H]2C(=O)OC(CCCc2cccnc2)CCCc2cccnc2)cc(OC)c1OC
[S] COc1cc(C(=O)C(=O)N2CCCC[C@H]2C(=O)OC(CCCc2ccccc2)c2ccc(OCc3ccncc3)c(OCc3ccncc3)c2)cc(OC)c1OC (stereo partly shown)
[T] COc1cc(C(=O)C(=O)N2CCCC[C@H]2C(=O)OC(CCCc2ccccc2)c2ccccc2)cc(OC)c1OCc1ccccc1 (stereo partly shown)
Ask: Please put the entries in order of rising pKi. Form entry: labels listed in requested order.
Result: T, P, R, Q, S
